# Tested on: EPHB1 kinase domain
# protocolDetails: pTyr-Var library bacterial peptide display kinase screen (enrichment scores)
# Format: biochemical, human
# statedConditions: sheet "EPHB1"; variant seq vs reference seq; bacterial peptide display enrichment
With a cut-off of 1, any Screen (variant relative to reference peptide, measured in the pTyr-Var library screen) strictly below it is called Yes; any Screen (variant relative to reference peptide, measured in the pTyr-Var library screen) meeting it or above is called No.

                               seqtext  classassignment
0        PLEGEYFTLQI [TP53_Y327_D324E]               No
1  LHQSTYQCFDV [SLC7A14_Y693_R695C_YF]               No
2        PLSGEYFTLQI [TP53_Y327_D324S]              Yes
3       ISSLLYELLEE [TRPC6_Y896_R895L]               No
4    VVQGIYGFHHH [UFSP2_Y285_Y290H_YF]              Yes
5       NREGVYTDFAP [TGFBI_Y537_V539D]              Yes
6             GRKTLYSFFSP [UNG_Y8_Q4R]              Yes
